Tested on: velvetleaf (Abutilon theophrasti MEDIC.)
Assay: Test Example 1, foliar treatment in upland pots
Format: in vivo
Conditions: 20th to 22nd day after application, visual, read-out: Growth inhibition rate (%) Velvetleaf
property_measured: inhibition at 7 g/ha (%)
Give the number; % is assumed, so skip it.

• CCCn1ncc(C(=O)c2ccc(S(C)(=O)=O)c(OCCOC)c2C)c1O [Compound No. 7-1] = 75

Now let's try a different one.
Ask | Output measured inhibition at 7 g/ha for this item: CCOCc1c(S(C)(=O)=O)ccc(C(=O)c2cnn(C)c2OC(C)OC(=O)OC)c1C (centres unmarked) [Compound No. 1-1]
Reply | 50

* * *

# inhibition at 63 g/ha per record follows
Test system: Japanese ribbon waparo (Sagittaria pygmaea)
Assay: Test Example 3, paddy field pot, application to irrigated water
Assay type: in vivo
Conditions: applied at primary leaf stage, 13th to 17th day after application, read-out: Growth inhibition rate (%) Japanese ribbon waparo
Give the value in % but do not write % after it.

Here is how some compounds turned out for inhibition at 63 g/ha.
- CCCn1ncc(C(=O)c2ccc(S(C)(=O)=O)c(OCCOC)c2C)c1O: 90
- CCn1nc(C)c(C(=O)c2ccc(S(C)(=O)=O)c(OCCOC)c2C)c1O: 60
- COCCOc1c(S(C)(=O)=O)ccc(C(=O)c2cnn(C(C)C)c2OC(C)OC(=O)OC)c1C (stereo not shown): 70

API: the following record is the query input.
Ask | Note inhibition at 63 g/ha for the compound shown: Cc1c(C(=O)c2cnn(C)c2O)ccc(S(C)(=O)=O)c1OCCC(C)C
Reply | 95

* * *

System: velvetleaf (Abutilon theophrasti MEDIC.)
Test: Test Example 1, foliar treatment in upland pots
Type: in vivo
Conditions: 20th to 22nd day after application, visual, read-out: Growth inhibition rate (%) Velvetleaf
Use yes when the recorded inhibition at 7 g/ha is no lower than 80%; use no when it is lower.

Please review the following examples before continuing.
- CCCn1ncc(C(=O)c2ccc(S(C)(=O)=O)c(OCCOC)c2C)c1OC(C)OC(=O)OCC (stereo not drawn) [Compound No. 3-1]: no
- COCc1c(S(C)(=O)=O)ccc(C(=O)c2cnn(C)c2OC(C)OC(=O)OC)c1C (stereo not drawn) [Compound No. 1-3]: no

Ask | In plain terms: is recorded inhibition at 7 g/ha at least 80% for COCCOc1c(S(C)(=O)=O)ccc(C(=O)c2c(C)nn(C)c2OC(C)OC(=O)OC)c1C (stereo not drawn) [Compound No. 1-6] ?
Reply | yes

Ask | Check this compound for inhibition at 7 g/ha at or above 80%: CCn1ncc(C(=O)c2ccc(S(C)(=O)=O)c(C(=O)OC)c2C)c1OC(C)OC(=O)OC (stereo not drawn) [Compound No. 2-2]
Reply | yes
